Measured activity change, negative = inhibition of individual entries
# Assay info: qHTS Assay for Lipid Storage Modulators (AID 1519); further: on the % scale 0 is the no-effect control and ±100 the full control effect
# Conditions: Drosophila S3 cells, BODIPY lipid droplet/cell ratio, laser cytometry; at 25.7 µM (top of the series); cells loaded with oleic acid
Records with an inconclusive call do not appear.

Compound | activity change, negative = inhibition, %
O=C1C=C2C=C[C@H]3C[C@@]2(O1)[C@H]1CCCCN31 | -1.11
C#CCN(C)[C@@H](C)Cc1ccccc1 | -2.3
CC(=O)O[C@H]1C[C@@H](O[C@@H]2[C@H](C)O[C@H](O[C@@H]3[C@H](C)O[C@H](O[C@@H]4CC[C@@]5(C)[C@@H](CC[C@]6(C)[C@]5(C)C[C@H](O)[C@]5(C)[C@@H](C7=CC(=O)OC7)CC[C@@]56O)C4)C[C@@H]3O)C[C@@H]2O)O[C@@H](C)[C@H]1O[C@H]1O[C@@H](CO)[C@@H](O)[C@@H](O)[C@@H]1O | -1.77
C[C@@H](C(=O)O)c1ccc(-c2ccccc2)c(F)c1 | 2.45
CN(C)[C@@H]1C(=O)C(C(N)=O)=C(O)[C@]2(O)C(=O)C3=C(O)c4c(O)ccc(Cl)c4[C@](C)(O)[C@H]3C[C@@H]12 | 0.321
CC(C)[C@@]1(NC(=O)[C@@H]2C[C@H]3c4cccc5[nH]cc(c45)C[C@@H]3N(C)C2)O[C@]2(O)[C@H]3CCCN3C(=O)CN2C1=O | 1.9
Clc1ccc(CS[C@@H](Cn2ccnc2)c2ccc(Cl)cc2Cl)cc1 | -2.77
C(#CCN1CCCC1)CN1CCCC1 | 0.99
C[N+]1([O-])[C@@H]2CC[C@H]1CC(OC(=O)[C@@H](CO)c1ccccc1)C2 (stereo not given in full) | -4.15
COc1cc2c(c(OC)c1OC)-c1ccc(OC)c(=O)cc1[C@H](NC(C)=O)CC2 | -7.92
CCN1C[C@@]2(COC)CC[C@H](O)[C@@]34[C@@H]2C[C@@H]([C@@H]13)[C@]1(O)C[C@@H](OC)C2C[C@H]4[C@H]1[C@H]2OC(C)=O | 2.15
CN1[C@@H]2CC[C@H]1CC(O)C2 (stereo not given in full) | -5.91
C=C(C)[C@H]1[C@H]2OC(=O)[C@@H]1[C@]1(O)C[C@H]3O[C@]34C(=O)O[C@H]2[C@@]14C | -0.482
CN1CCc2cc3c(cc2[C@@H]1O)OCO3 | 0.396
CN1[C@@H](C[C@@H](O)c2ccccc2)CCC[C@@H]1C[C@H](O)c1ccccc1 | -1.73
C=C1CC[C@H](O)C/C1=C/C=C1\CCC[C@]2(C)[C@H]1CC[C@H]2[C@@H](C)CCCC(C)C | 0.847
CC(C)(C)NC[C@H](O)c1cc(Cl)c(N)c(Cl)c1 | -0.0671
O=C(NC[C@@H]1CCCCN1)c1cc(OCC(F)(F)F)ccc1OCC(F)(F)F | -0.787
COc1cc(C(=O)OC2C[C@H]3CC[C@@H](C2)N3C)ccc1O (stereo not given in full) | 2.65
C[C@@]12CC[C@H]3[C@@H](CC[C@@H]4C[C@H]5S[C@H]5C[C@]43C)[C@H]1CC[C@H]2O | -4.67
CN(C)C(=O)Oc1cc(OC(=O)N(C)C)cc([C@@H](O)CNC(C)(C)C)c1 | -0.844
C=C[C@]12CN(C)[C@H]3C1[C@@]1(C(=O)Nc4ccccc41)[C@H]1C[C@H]2[C@H]3CO1 | -5.3
CCN1C[C@]2(C)CC[C@H](O)[C@@]34[C@@H]5CC6[C@@H](OC)C[C@@](O)([C@@H]5[C@@H]6O)[C@H](C[C@@H]23)[C@H]14 | -2.73
CN1CC[C@]2(C)c3cc(O)ccc3N(C)[C@@H]12 | -1.57
CCC[C@@](C)(COC(N)=O)COC(=O)NC(C)C | -3.74
Clc1ccc(CO[C@@H](Cn2ccnc2)c2ccc(Cl)cc2Cl)cc1 | -6.08
C[C@H]1CC[C@@H]2[C@@H](C)C(=O)O[C@H]3O[C@@]4(C)CC[C@H]1[C@@]32OO4 | -3.8
CCN1C[C@@]2(COC)[C@H]3[C@@H](OC)[C@H]4C1[C@@]3([C@H](OC)C[C@@H]2O)[C@H]1C[C@@]2(O)[C@@H](OC(=O)c3ccccc3)[C@@H]1[C@@]4(OC(C)=O)[C@H](O)[C@@H]2OC | -1.64
C[N+]1(C)[C@@H]2CC[C@H]1CC(OC(=O)[C@@H](CO)c1ccccc1)C2 (stereo not given in full) | -3.15
C[N+]1(C)CCO[C@](O)(c2ccc(-c3ccc([C@]4(O)C[N+](C)(C)CCO4)cc3)cc2)C1 | -0.651
COc1ccc(C(=O)OC2C[C@H]3CC[C@@H](C2)N3C)cc1OC (stereo not given in full) | 0.262
Clc1ccc([C@@H](OCCN2CCCCC2)c2ccccc2)cc1 | -2.71
C[C@@]12CCC(=O)C=C1C=C[C@H]1[C@H]3CC[C@](O)(CCC(=O)O)[C@]3(C)CC[C@@H]12 | -0.688
COc1ccc2c(c1OC)CN1CCc3cc4c(cc3[C@H]1C2)OCO4 | -2.73
CCN[C@]1(c2cccs2)CCCCC1=O | 0.601

Reference for the values: PubChem BioAssay (NCATS)
